- assayed.system: Heat shock factor protein 1 (Homo sapiens)
- protocol.details: ATG_HSE_CIS: Attagene CIS-FACTORIAL HepG2 Assay for human Heat Shock Transcription Factor 1 (HSE) (AID 2282953)
- details: HepG2 HSE cis-reporter, Attagene RNA transcription; actives raise or lower the signal
Activity calls are given as the source filed them. How the source made its calls: active means hit-call score of the fitted dose curve at least 0.9, where 1 is the maximum; inactive means score below 0.9.
Hi! Could you answer with just one of these? yes (1) = active, no (0) = inactive

Below are worked cases with known answers.
# compound, label.value
data = [
    ("CC(=O)CC(C)(C)O", "no (0)"),
    ("CCCCCCCCCCCCCC[N+](C)(C)C", "no (0)"),
    ("NC(=O)N(O)[C@@H]1C=C[C@H](Oc2cccc(Oc3ccc(F)cc3)c2)C1", "yes (1)"),
]

Given CCCCC(CC)COC(=O)CCCCC(=O)OCc1ccccc1 (configuration not stated) , state the outcome it received in this test.
no (0)

Given N#C[C@@H]1CC(F)(F)CN1C(=O)CNC1CC2CCC(C1)N2c1ncccn1 (some centres not stated) , state the outcome it received in this test.
no (0)
